Below: a set of entries, each annotated with reported mortality.
Assay: Tolerance of vitamin B6 and two derivatives in mice after a single oral dose of 5 g
Settings: mouse, in vivo, 5000 mg, single oral dose of 5 g, read-out: % death
Value type: mortality (%)

Smiles input: Cc1ncc(CO)c(CN)c1O
Measured: 0

Smiles input: Cc1ncc(CO)c(CO)c1O
Measured: 30

Smiles input: Cc1ncc(CO)c(C=O)c1O
Measured: 100

The origin of these recorded values is patent US5288716A.
